measured.quantity: melting point

Here is how some molecules turned out for melting point.
O=C(NCC1CCCNC1)Nc1cccc(F)c1 (centres undefined) | 123 to 125 °C
CCOC(=O)c1nc2ccccc2c(=O)[nH]1 | 189 to 193 °C
CC(C)(C)NC(=O)CC1(C(=O)O)CCCC1 | 201 to 203 °C
CN(C)CCN=C=S | 35 to 37 °C
Cc1nc(-c2cccc(N)c2)oc1C | 104 to 106 °C
Nc1cccc(-c2nnco2)c1 | 66 to 68 °C
Nc1ccc(N2CCCC2=O)cc1 | 125 to 127 °C
CCc1ccccc1-n1cc(O)c(C(=O)O)n1 | 101 to 103 °C
O=C(O)c1cnn(-c2nccs2)c1 | 181 to 183 °C
CC(=O)c1ccc(S(=O)(=O)N2CCCCC2)cc1 | 139 to 142 °C

Kindly note the recorded melting point for `OCCCNc1ccncc1` , which is 98 to 100 °C

Kindly note the recorded melting point for `O=c1[nH]c(CO)nc2scc(-c3ccccc3)c12` , which is 259 to 261 °C

Kindly note the recorded melting point for `Cn1cnc(S(=O)(=O)Cl)c1Cl` , which is 54 to 56 °C

Kindly note the recorded melting point for `CCCNc1cc(F)ccc1[N+](=O)[O-]` , which is 61 to 63 °C

----------
measured.quantity: melting point

CC(=O)CC(=O)c1ccc(Cl)cc1 | 67 to 71 °C

Kindly note the recorded melting point for `O=S(=O)(c1ccc(O)cc1)N1CCCCC1` , which is 130 to 132 °C

Kindly note the recorded melting point for `Nc1ccc(-c2nc3ccccc3s2)cc1` , which is 149 to 151 °C

----------
Reported melting point values for the following compounds.

Here is how some compounds turned out for melting point.
O=C1Nc2cc(Cl)ccc2C1=O | 264 to 266 °C
Cc1cc(NC(=O)C2CCCCC2C(=O)O)[nH]n1 (stereo not given) | 114 to 116 °C
O=C(O)CSCC(=O)c1ccc(Cl)cc1 | 81 to 83 °C
CN(C)S(=O)(=O)c1ccc2c(c1)NCC2 | 121 to 123 °C
C=C(CC(=O)OC)C(=O)O | 67 to 69 °C

Kindly note the recorded melting point for `CCOC(=O)COc1ccc(C(C)=O)cc1` , which is 52 to 54 °C

Kindly note the recorded melting point for CC(CC(=O)O)c1ccc(F)cc1 (stereo not given) , which is 64 to 66 °C

Kindly note the recorded melting point for OCC(c1ccc(Cl)cc1)N1CCNCC1 (stereo not given) , which is 116 to 118 °C

Kindly note the recorded melting point for `O=C1CCC(O)(c2cccc(Cl)c2)CC1` , which is 119 to 121 °C

Kindly note the recorded melting point for `FC(F)(F)Cc1nc2cc(Br)ccc2[nH]1` , which is 139 to 141 °C

Kindly note the recorded melting point for `Clc1ccc(Cl)c(OCCBr)c1` , which is 57 to 59 °C

Kindly note the recorded melting point for `Cc1nc(N)c(Cl)cc1Cl` , which is 136 to 138 °C

Kindly note the recorded melting point for `Cc1ccc(-c2nn(-c3ccccc3)cc2/C=C(\C#N)C(=O)O)cc1` , which is 295 to 297 °C

Kindly note the recorded melting point for `CCN(CC)S(=O)(=O)c1ccc(Cl)c([N+](=O)[O-])c1` , which is 88 to 91 °C

----------
measured.quantity: melting point

Kindly note the recorded melting point for `COc1cc(Cl)c(C)cc1NC(=O)CCl` , which is 167 to 169 °C

Kindly note the recorded melting point for `O=C(O)Cc1csc(NC(=O)c2ccccc2F)n1` , which is 204 to 206 °C

Kindly note the recorded melting point for `Sc1nncn1C1CC1` , which is 189 to 191 °C

Kindly note the recorded melting point for `O=C(O)c1ccc2nnnn2c1` , which is 216 to 218 °C

----------
measured.quantity: melting point

Here is how some compounds turned out for melting point.
Cc1ncc(N)s1 | 120 to 122 °C
O=C(O)C1CC1c1ccc(OC(F)F)cc1 (configuration not stated) | 73 to 75 °C
Cc1nn(-c2ccc(F)cc2)c(C)c1C=O | 128 to 130 °C
Cc1ccc(-n2ncc(Cl)c(Cl)c2=O)cc1Cl | 206 to 208 °C
O=C(Cc1ccc(Cl)cc1Cl)c1ccc(F)cc1 | 108 to 110 °C
Cc1nc(S)nc(O)c1CCO | 263 to 265 °C

Next up:
Kindly note the recorded melting point for `Cc1ccc(C(=O)O)cc1S(C)(=O)=O` , which is 209 to 211 °C

----------
measured.quantity: melting point

Oc1ccc(-c2ncc[nH]2)cc1 | 265 to 267 °C
Cc1nc(S)c2ccccc2n1 | 211 to 213 °C
C#CCNC(=O)Nc1ccc(C)cc1 | 174 to 176 °C
O=C(O)c1cc2c(c(S(=O)(=O)Cl)c1)CCC2 | 197 to 199 °C
O=C(CCc1ccccc1Cl)c1ccccc1 | 46 to 48 °C

Kindly note the recorded melting point for NC(=O)NC1CCCc2ccccc21 (configuration not stated) , which is 204 to 206 °C

Kindly note the recorded melting point for `CC(C)n1cc2cc(N)ccc2n1` , which is 105 to 107 °C

----------
Reported melting point values for the following molecules.

Here is how some molecules turned out for melting point.
CCC(=O)N1CCCC(C(=O)O)C1 (centres undefined) | 117 to 119 °C
Nc1ccc(OCc2ccccn2)c(Cl)c1 | 91 to 93 °C
NC(CN1CCc2ccccc21)=NO | 93 to 95 °C
O=C(O)CC1CCCCO1 (centres undefined) | 49 to 51 °C
COc1ccc2c(c1)NC(=O)C2=O | 223 to 225 °C
CC(C)Oc1ccc(CCCO)cc1 | 31 to 33 °C

Kindly note the recorded melting point for `CCOc1c(N)cc(Cl)cc1Br` , which is 45 to 47 °C

Kindly note the recorded melting point for `O=c1cc(-c2ccccc2)c2cc(Cl)c(O)cc2o1` , which is 260 to 262 °C

Kindly note the recorded melting point for `O=C(c1ccc(S(=O)(=O)Cl)cc1)N1CCOCC1` , which is 110 to 112 °C

Kindly note the recorded melting point for `Nc1sc2c(c1C(=O)c1ccc(C(F)(F)F)cc1)CCC2` , which is 200 to 202 °C

Kindly note the recorded melting point for `OCc1sc2ccccc2c1Cl` , which is 90 to 92 °C

Kindly note the recorded melting point for `CC(C)N1C(=O)CNCC1(C)C` , which is 85 to 87 °C

----------
Reported melting point values for the following compounds.

Here is how some compounds turned out for melting point.
CC(C)(C)c1noc(-c2ccccc2C(=O)O)n1 | 100 to 102 °C
COc1ccc(C2(C)NC(=O)NC2=O)cc1OC (stereo not drawn) | 177 to 179 °C
O=C(O)CCc1ccc(S(=O)(=O)N2CCOCC2)cc1 | 160 to 162 °C
COc1ccc(C2C(C(=O)O)CC(=O)N2C2CC2)cc1 (stereo not drawn) | 187 to 189 °C
Nc1cc(C(=O)O)ccc1I | 209 to 211 °C
NC(C(=O)O)c1ccccc1Br (stereo not drawn) | 199 to 201 °C

Kindly note the recorded melting point for `COc1ccc2c(c1)C(=O)CCO2` , which is 44 to 46 °C

Kindly note the recorded melting point for `COc1cc(C=O)cc2sc(=O)oc12` , which is 160 to 162 °C

Kindly note the recorded melting point for `O=C(O)c1nccnc1C(=O)N1CCOCC1` , which is 185 to 187 °C

Kindly note the recorded melting point for `CC(C)c1ccc(S(=O)(=O)c2ccc(NN)cc2)cc1` , which is 191 to 193 °C

Kindly note the recorded melting point for `CS(=O)(=O)N1CCN(C(=O)c2ccc(O)cc2)CC1` , which is 211 to 213 °C

Kindly note the recorded melting point for `Nc1nc2c(C(F)(F)F)cccc2s1` , which is 48 to 50 °C

Kindly note the recorded melting point for `Sc1nc2cc(Cl)cnc2[nH]1` , which is 352 to 354 °C

----------
measured.quantity: melting point

Here is how some molecules turned out for melting point.
N#Cc1cccc(OCC(=O)NC2CC2)c1 | 106 to 108 °C
CCCS(=O)(=O)Nc1cccc(N)c1C | 99 to 101 °C
N#Cc1ccc(CN2CCNCC2)cc1 | 214 to 216 °C
O=C(O)c1ccc2cc[nH]c2n1 | 209 to 211 °C
Nc1cccc(OCc2ccc(Cl)cc2)c1 | 87 to 89 °C

Kindly note the recorded melting point for `COc1ccc(Cl)cc1-n1cc(S(=O)(=O)Cl)cn1` , which is 89 to 91 °C

Kindly note the recorded melting point for `O=C(O)c1ccc(NS(=O)(=O)c2cc(Cl)sc2Cl)cc1` , which is 189 to 191 °C

Kindly note the recorded melting point for `CCCCc1ccc(Nc2nnc(S)s2)cc1` , which is 124 to 126 °C

Kindly note the recorded melting point for CC(C)C1NC(=O)c2ccccc2NC1=O (stereo not drawn) , which is 259 to 261 °C

Kindly note the recorded melting point for CC(C)(C)OC(=O)N1CCC2(CC1)CC2C(=O)O (stereo not drawn) , which is 123 to 125 °C

Kindly note the recorded melting point for `COc1ccc(-c2[nH]c3ccc(F)cc3c2CCC(=O)O)cc1` , which is 134 to 138 °C

Kindly note the recorded melting point for `Nc1nc2ccccc2n1C1CCCCC1` , which is 206 to 208 °C

Kindly note the recorded melting point for `O=Cc1ccc(Sc2ncccn2)c([N+](=O)[O-])c1` , which is 100 to 102 °C
